measured-on: ELIC G318F/V260Y (Dickeya chrysanthemi, UniProt P0C7B7, G318F/V260Y)
condition-label: read-out: EC50, concentration of cysteamine to elicit half maximal channel gating; ELIC G318F/V260Y double mutant, oocytes
pEC50: −log10 of the molar value.
readout-kind: pEC50

[[record]]
smiles_code = "NCCS"
numeric_readout = 3.89


----------
measured-on: ELIC I319F/V260Y (Dickeya chrysanthemi, UniProt P0C7B7, I319F/V260Y)
condition-label: read-out: EC50, concentration of cysteamine to elicit half maximal channel gating; ELIC I319F/V260Y double mutant, oocytes
pEC50: −log10 of the molar value.
readout-kind: pEC50

[[record]]
smiles_code = "NCCS"
measured_on = "ELIC I319F/V260Y (Dickeya chrysanthemi, UniProt P0C7B7, I319F/V260Y)"
numeric_readout = 3.89


----------
measured-on: ELIC L308W (Dickeya chrysanthemi, UniProt P0C7B7, L308W)
experiment: Two-electrode voltage clamp dose response to cysteamine, ELIC L308W mutant
Format: cell-based
condition-label: read-out: EC50, concentration of cysteamine to elicit half maximal channel gating; ELIC L308W, oocytes
readout-kind: EC50 (µM)

[[record]]
smiles_code = "NCCS"
numeric_readout = 290

